Sourced from the supplement of paper PMC10567573

Quick reference: protein stability index of the listed items.
B1: PDLIM4 (parent)
chain: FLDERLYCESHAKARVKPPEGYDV

Variants of: B1
Test: protein stability index of a GFP-peptide fusion (GPS, HEK-293T) (PSI 1-6); higher = more stable;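 note: lentivirally expressed fusions sorted by FACS into six bins by GFP to DsRed ratio, PSI derived from sequencing read proportions per bin multiplied by bin number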
Conditions: c terminus: a fixed tail appended
Could you keep your reply to the number by itself?

R5Y | 1.42

## Task Given the entry L2K , report its measured protein stability index.
## Result 3.99

## Task Given the entry K13Y , report its measured protein stability index.
## Result 2.63
